Measured values drawn from PubChem BioAssay (NCI) for this set.

System: SNB-78 CNS
Method: NCI tumour cell line growth inhibition, 48 h
Measured parameter: TGI

Report TGI for O=C1OC2C(O)COC2(O)C1(O)C(C[N+](=O)[O-])c1ccc(Cl)cc1 (stereo not drawn) tested on SNB-78 CNS. 71.6 µM

What TGI appears in the records for this molecule with SNB-78 CNS? O=C1OC(c2ccccc2)=N/C1=C\c1ccc2ccccc2c1 > 100 µM

Find TGI (SNB-78 CNS) for the entry COC(=O)C(=O)C(C(=O)C1=NS(=O)(=O)c2cc(S(N)(=O)=O)c(Cl)cc2N1)c1nc2ccc(C(=O)c3ccccc3)cc2[nH]c1=O (stereo not drawn) > 100 µM

Test system SNB-78 CNS; read-out TGI; what value for COc1cccc(NC(=O)C(C)(C)C)c1C=O ? > 100 µM

For SNB-78 CNS, provide TGI of Cc1c(-c2ccccc2)c(=O)oc2ccc(Cl)cc12 please. > 100 µM

Notebook: pull reported TGI for SNB-78 CNS, entry O=C(NCCO)c1cc2c(cn1)[nH]c1ccccc12 > 100 µM

Please tell me: TGI of Nc1nc(Cl)cc(NCCCCCNc2cc(Cl)nc(N)n2)n1 , system SNB-78 CNS? 88 µM

Notebook entry, SNB-78 CNS assay: TGI of CCOC(=O)Cc1nc2ccccc2s1 = ? 33 µM

Record lookup: for SNB-78 CNS, what TGI belongs to CCCCCCCCCCCCCCCCOCC(CN(C)CCN(C)C)OCCCCCCCCCCCCCCCC (stereo not drawn) ? > 100 µM

Entry C#Cc1c(C)c(/C=C/C(C)=C/C=C/C(C)=C/C(=O)OC)n(C)c1C , system SNB-78 CNS: what TGI was measured? > 100 µM

Quick check: TGI on SNB-78 CNS, item CN(C)c1ncnc2c1Cc1ccccc1C(=O)N2C ? > 100 µM

Recall the recorded TGI for COc1ccc(/C=N/N=C(\N)NO)c(Cl)c1O with SNB-78 CNS and state it. > 100 µM

Report TGI for O=C(CSc1nnc(Cc2ccccc2)o1)Nc1cccc(Cl)c1 tested on SNB-78 CNS. > 100 µM

###

Tested on: EKVX NSCLC
Method: NCI tumour cell line growth inhibition, 48 h; in the data active = GI50 below about 0.43 µM; inactive = the rest
Outcome field: choose from TRUE = active, FALSE = inactive

Hi team, can someone confirm the assay call for N=C(N)/N=C(\N)c1c(-c2cc(O)ccc2O)nc2sccn12 ? FALSE

Could you check what this test reported for Cc1ccc2c(c1)C(C)Cc1c(ncnc1-n1cnc3cc(C)ccc31)N2C (stereo not drawn) ? TRUE

What call does the record list for C/C1=C/C(=O)O[C@@H]2C[C@@H](CC[C@H](C)/C=C\C=C\CC1)O[C@@](O)([C@@H]1CSC(=O)N1CO)C2 ? TRUE

# fetch the recorded call for C=C(C)[C@@H]1CC[C@]2(C(N)=O)CC[C@]3(C)[C@H](CC[C@@H]4[C@@]5(C)CC[C@H](O)C(C)(C)[C@@H]5CC[C@]43C)[C@@H]12 here FALSE

Per the assay record, what outcome was assigned to O=C1/C=C/[C@@H](O)[C@@H]2C[C@@H](O)C[C@H]2/C=C/CCC[C@H](CCc2ccc(C(F)(F)F)cc2)O1 ? TRUE

Answer briefly: the call reported for NCCCCCCCCn1c2c(c3ccccc3c1=O)C(=O)c1ccccc1-2 in this assay. FALSE

Assay result, entry CCN1C(=O)N(CC)C2C1NN=c1s/c(=C\c3ccccc3F)c(=O)n12 (stereo not drawn) — outcome? TRUE

How did this test come out for COc1cc(-c2nc(NC(C)=O)sc2-c2ccnc(NCCNS(=O)(=O)c3ccccc3)n2)ccc1Cl ? FALSE

Could you please tell me the result logged for COc1cc2c(F)nccc2cc1C(=O)N[C@@H](c1ccc(F)c(Cl)c1)[C@@H]1C[C@@H](O)CN1 in this assay? FALSE

Hey, what did the test say about CCCCCCCCCCCCNC(=O)[C@H]1CSC(c2cc3ccccc3s2)N1 (stereo partly drawn) ? FALSE

What outcome does the record of this test show for Cc1ccc(S(=O)(=O)Oc2ccc([N+](=O)[O-])cc2[N+](=O)[O-])cc1 ? FALSE

Hi, sorry to bother you, what did the test record for CC(/C=C/C(=O)c1sc(-n2nc(-c3ccccc3)cc2-c2ccccc2)nc1C)=C\c1ccccc1 ? FALSE

# lookup: test call for O=Nc1ccc(O)c2ccccc12 FALSE

Recorded test call requested for NC(=O)C1c2ccccc2C=Cc2ccccc21 FALSE

Dear all, I need the recorded test outcome for CC(C)CCSC1=CC(=O)c2ccccc2C1=O , thank you. FALSE

Given CNC(=O)c1c(NC(=O)c2ccc(C(F)(F)F)cc2)sc2c1CCC(=O)C2 , state the outcome it received in this test. FALSE

Dear colleague, could you share the recorded outcome for COc1c2c3ccccc3nc-2n(C)c2ccccc12 when you have a moment? FALSE

Short answer needed: outcome of this test for Fc1ccc(-c2nn3c(CNc4ccccc4)nnc3s2)cc1 ? FALSE

###

Please provide measured TGI for the entries that follow.
System: HT29 colon
Method: NCI tumour cell line growth inhibition, 48 h
Where a SMILES comes first, the peptide text is derived from it. Bridges are numbered along the chain shown (N, C = ends). [ ]: non-standard residue; d: D form. The star is where a group is joined. PhAc = O=C(Cc1ccccc1)*

What value of TGI has been reported for the following compound? COc1ccc(C2=Nn3c(nc4sc(C)c(C)c4c3=O)SC2)cc1 > 100 µM

Which value of TGI has been reported for CC1=[N+]([O-])C(C)(C)N(N=O)C1(C)C in the records? > 10 µM

Would you mind telling me what TGI value was observed for N=C(N)/N=C(\N)c1c(-c2cc(O)ccc2O)nc2sccn12 ? > 100 µM

Entry O=C(Cc1nc2ccccc2s1)Nc1ccc(Cl)cc1 : reported TGI = ? > 100 µM

If you can, please state the reported TGI value of Nc1ccccc1SC(CC(=O)c1ccccc1)c1ccc([N+](=O)[O-])cc1 (stereo unspecified) . 14.6 µM

Entry under review: O=C(Cc1ccccc1)N[C@@H]1COC(=O)[C@@H]2CCCN2C(=O)[C@@H]2CCCN2C1=O (PhAc-[dS]-Pro-Pro; ester 1-C) . Reported TGI? > 100 µM

# lookup: TGI of Cc1c(C#N)c(N)[nH]c(=S)c1C#N > 100 µM

Item under review: C/C(=C/c1ccccc1)CN(C(=O)/C=C\Sc1ccccc1)C(C)(C)C . Reported TGI? > 100 µM

Give its TGI value. Item: C=CCOc1ccc(/C(N=Nc2ccc(C)cc2)=N/NC(=O)c2ccccc2)cc1OC > 100 µM

Param item = CCc1n[nH]c(=O)n1N1C(=O)CCC1=O ; retrieve measured TGI. > 100 µM

Fill in: TGI of Nc1ccc(Oc2ccc(C3(c4ccc(Oc5ccc(N)cc5)cc4)C4CC5C6CC7CC5C3C(C7)C6C4)cc2)cc1 is ___ > 100 µM

###

Give TGI for every item shown.
Test system: MDA-N
Method: NCI tumour cell line growth inhibition, 48 h

Any idea what its TGI is? The compound is O=C(Nc1cc2c(=O)[nH]c3ccccc3c2oc1=O)c1cnccn1 > 100 µM

What TGI value was documented for this compound, C1=Nc2ccc(cc2)N=Cc2ccccc2OCc2cccc(n2)COc2ccccc21 ? > 100 µM

Can you look up the measured TGI of Cn1c2c(c3ccccc31)CCN1OCC=C[C@@H](C(=O)O)[C@@H]21 for me? > 100 µM

Fill blank: measured TGI of the compound Sc1ccc2ccccc2c1CNCc1ccccc1 is ____. 37.6 µM

Can you share its TGI? I mean this compound: CCc1c2c(nc3cc4c(c(N)c13)OCO4)-c1cc3c(c(=O)n1C2)COC(=O)[C@]3(O)CC > 100 µM

Reported TGI, compound CC1(C)C=Cc2c(cc3oc4ccc5c(c4c(=O)c3c2O)C=CC(C)(C)O5)O1 : ____ > 100 µM

###

System: OVCAR-3 ovarian
Method: NCI tumour cell line growth inhibition, 48 h
Measured parameter: TGI (µM)
Output spec: scalar in µM, unitless text.

OVCAR-3 ovarian / TGI / C=CC(=O)N1C/C(=C\c2ccccc2)C(=O)/C(=C/c2ccccc2)C1 : value? 4.47

Enter reported TGI observed with OVCAR-3 ovarian for Cc1ccc(S(=O)(=O)Oc2ccc([N+](=O)[O-])cc2[N+](=O)[O-])cc1 11.5

// lookup TGI | system=OVCAR-3 ovarian | key= CC(N)C(=O)OCN1C(=O)C2C3C=CC(C2C1=O)C1C2C(=O)N(COC(=O)C(C)N)C(=O)C2C31 (stereo not given) 91.5

// lookup TGI | system=OVCAR-3 ovarian | key= COc1cc(-c2nc(NC(C)=O)sc2-c2ccnc(NCCNS(=O)(=O)c3ccccc3)n2)ccc1Cl 32.6

TGI of CCN1C(=O)N(CC)C2C1NN=c1s/c(=C\c3ccccc3F)c(=O)n12 (stereo not given) on OVCAR-3 ovarian? 0.0789

For the record CN(C)CC1CCCC(CN2CCCCC2)C1=O (stereo not given) , what value of TGI is listed for OVCAR-3 ovarian? 17.1

Which measured TGI belongs to COC(=O)[C@H]1C(=O)[C@@]2(C)[C@H]([C@H](OC(=O)c3ccccc3)[C@]3(O)C[C@H](OC(=O)[C@H](O)[C@@H](NC(=O)c4ccc(F)cc4)c4ccccc4)C(C)=C1C3(C)C)[C@]1(OC(C)=O)CO[C@@H]1C[C@@H]2O , tested on OVCAR-3 ovarian? 0.0222

Reported TGI for OVCAR-3 ovarian, given Cc1ccccc1N=CN(C)C ? 81.2

GET /values?readout=TGI&system=OVCAR-3 ovarian&item= O=C1/C(=C\c2ccc(F)cc2)CN(C(=O)c2ccc([N+](=O)[O-])cc2)C/C1=C\c1ccc(F)cc1 7.53

GET /values?readout=TGI&system=OVCAR-3 ovarian&item= O=C(CSc1nc2ccccc2nc1-c1ccccc1)Nc1ccc(Cl)cc1 40.3
